Target: T1, Human IL-13-Mouse IL-13 Helix C (human IL-13 with mouse Helix C, UniProt P35225 35-146, limits assumed)
T1 construct: Expressed and secreted chimeric protein; also called Mo HelixC
T1 chain: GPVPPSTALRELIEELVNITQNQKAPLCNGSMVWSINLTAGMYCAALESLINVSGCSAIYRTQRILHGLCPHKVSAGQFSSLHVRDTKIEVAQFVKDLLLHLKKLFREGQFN
Experiment: ELISA on secreted IL-13 chimeric proteins
Readout: binding result

Recorded binding result, per entry:
mAb 623 (antibody, V domains shown, also called sc623) VH: EVQLVESGGGLVKPGGSLRLSCAASGFTFSNAWMSWVRQAPGKGLEWVGRIRSEIDGGTTNYAAPVKGRFTISRDDSKNTLYLQMNSLKTEDTAVYYCATDQVGAYYGDYYGMDVWGQGTTVTVSS VL: SYELTQPPSVSVSPGQTARITCSGDALPEKYAYWYQQKSGQAPVLVIYEDSKRPSGIPERFSGSSSGTMATLTISGAQVEDEADYYCHSTDSSGNHGVFGGGTKLTVLG | binds
mAb 602 (antibody, V domains shown) VH: EVQLVESGGGLVKPGGSLRLSCAASGFTFSNAWMSWVRQAPGKGLEWVGRIRSKIDGGTINYAAPVKGRFTISRDDSKNTLYLQMNSLKTEDTAVYYCATDQVGAYYGDYYGMDVWGQGTTVTVSS VL: SYELTQPPSVSVSPGQTARITCSGDALPEKYAYWYQQKSGQAPVLVIYEDTKRPSGIPERFSGSSSGTMATLTISGAQVEDEADYYCYSTDSSGNHGVFGGGTKLTVLG | binds
mAb 713 (antibody, V domains shown) VH: EVQLLESGGGLVQPGGSLRLSCAASGFTFSSYAMSWVRQAPGKGLEWVSAFSGSGGSTYYADSVKGRFTISRDNSKNTLYLQMNSLRAEDTAVYYCVQDGLGPYFYNYGMDVWGQGTTVTVSS VL: SYELTQPPSVSVSPGQTASITCSGDKLGDKYTCWFQQKPGQSPVLVIYHDSKRPSGIPERFSGSNSGDTATLTISGTQAMDEADYYCQAWDSSTYVFGTGTKVTVLG | no binding
mAb 731 (antibody, V domains shown, also called sc731) VH: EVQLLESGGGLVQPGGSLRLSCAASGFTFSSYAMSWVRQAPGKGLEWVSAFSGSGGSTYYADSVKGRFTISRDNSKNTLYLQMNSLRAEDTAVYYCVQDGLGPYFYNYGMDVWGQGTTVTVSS VL: SYELTQPPSVSVSPGQTASITCSGDKLGDKYACWFQQKPGQSPVLVIYHDSKRPSGIPERFSGSNSGDTATLTISGTQAMDEADYYCQAWDSSTYVFGTGTKVTVLG | no binding
mAb 643 (antibody, V domains shown) VH: EVQLVESGGGLVKPGGSLRLSCAASGFTFSNAWMSWVRQAPGKGLEWVGRIRSEIDGGTTNYAAPVKGRFTISRDDSKNTLYLQMNSLRTEDTAVYYCATDQVGAYYGDYYGMDVWGQGTTVTVSS VL: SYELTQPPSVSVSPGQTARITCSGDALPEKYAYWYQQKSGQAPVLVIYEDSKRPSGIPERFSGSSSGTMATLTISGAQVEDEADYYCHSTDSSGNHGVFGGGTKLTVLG | binds

Now look at this one.
Lookup result for mAb 693 (antibody, V domains shown, also called sc693) VH: QVQLQESGPGLVKPSETLSLTCSVSGGSISSYYWSWIRQPAGKGLEWIGRIYMTGRTNYNSSLKSRVTMSIDTSKNQLSLKLSFMTAADTAVYYCARESGSSYSYDYWGQGTLVTVSS VL: SYVLTQPPSVSVAPGQTARITCGGNNIGSKGVHWYQQKPGQAPVLVVYDDSDRPSGIPERFSGSNSGNTATLTISRVEAGDEADYYCQVWVSSSDHHVVFGGGTKLTVV ; measured binding result: binds
